# tested-on: first-generation H3 LAH construct H3frThrST (Influenza A virus (H3))
# method-description: ELISA, supernate
observed-property: OD

INSERT INTO results (binder, observed_property, test_value) VALUES
  ('mAb 4A10 (antibody, V domains shown) VH: EVQLVESGGGLVQPGGSLRLSCAASGFSFSSYWMTWVRQAPGKGLEWVANIKQYGSEKYYVDSVKGRFTISRDNAKNSLYLQMNSLRDDDTAVYYCARMGSYLDTYYYHYGMDVWGQGTTVTVS VL: QSVLTQPPSLSGAPGQRVTISCTGSSSNIGADYDVYWYQHLPGTAPKLLMYGDGYRPSGVPDRFSGSKSGTSASLAITGLQAEDEADYYCQSYDSSLSRRVVFGGGTKLTVLG', 'OD', '0.073 OD');
